- study-system: human IL-17A/F (human, UniProt Q16552 24-155; Q96PD4 31-163)
- Sequence (Q16552 24-155 limits assumed, chain 1 of 2): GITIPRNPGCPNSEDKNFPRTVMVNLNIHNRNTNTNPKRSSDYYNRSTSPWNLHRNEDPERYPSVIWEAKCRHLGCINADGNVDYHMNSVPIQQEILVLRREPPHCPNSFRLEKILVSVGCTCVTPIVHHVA
- Sequence (Q96PD4 31-163 limits assumed, chain 2 of 2): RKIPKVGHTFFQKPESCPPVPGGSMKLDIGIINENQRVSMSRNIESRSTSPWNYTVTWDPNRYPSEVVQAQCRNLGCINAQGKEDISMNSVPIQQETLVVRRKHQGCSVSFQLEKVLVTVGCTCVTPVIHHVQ
- protocol-summary: cell-based or functional assay
observation-type: Potency (nM), IL-17-driven IL-6 production in HS27 cells
A number alone suffices; assume nM.

In: Please give the measured Potency (nM), IL-17-driven IL-6 production in HS27 cells for this binder: IL17-TN-L7-G9 (antibody, V domains shown, Fully human monoclonal antibody from mRNA display) VH: EVQLLESGGGVVQPGRSLRLSCAASGFIFSNYGMHWVRQAPGKGLEWVAVISYDGSNKYYADSVKGRFTISRDNSKNTLYLEMNSLRPEDTAVYYCAKVGASGDYYYSYGLDVWGQGTTVTVSS VL: QSGLTQPPSASGTPGQTVSISCSGSNSNIGSHSVNWYQQVPGAAPKLLMYGIGQRPSGVPDRFSVSQSGTSASLAISGLQSEDEADYYCATWDDSLGGYVFGSGTKVTVLG
Out: 2
